The following binders are listed with their measured A450 values.
- target-or-system: T1, Mouse Id1: Histidine (mouse, UniProt P20067-2 1-148, limits assumed)
- T1 construct: Fusion protein made in E. coli from vector pGW07; also called m-Id1-His; not shown: His tag
- T1 sequence (looked up): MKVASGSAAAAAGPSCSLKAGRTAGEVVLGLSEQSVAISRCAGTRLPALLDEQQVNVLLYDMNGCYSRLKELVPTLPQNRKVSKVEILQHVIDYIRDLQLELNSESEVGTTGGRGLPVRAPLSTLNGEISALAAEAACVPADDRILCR
- method-summary: ELISA, Ab 0.050 µg/ml

| binder | scale-unit | A450 |
| --- | --- | --- |
| rabbit monoclonal anti-mouse/human Id3, clone #BCH-4/#17-3 (antibody, V domains shown, Rabbit IgG from a rabbit hybridoma; also called m/h Id3 MoAb 17-3; BCH-3/#17-3) VH: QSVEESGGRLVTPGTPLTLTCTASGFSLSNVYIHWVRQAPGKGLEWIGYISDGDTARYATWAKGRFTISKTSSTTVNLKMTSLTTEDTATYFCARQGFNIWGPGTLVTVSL VL: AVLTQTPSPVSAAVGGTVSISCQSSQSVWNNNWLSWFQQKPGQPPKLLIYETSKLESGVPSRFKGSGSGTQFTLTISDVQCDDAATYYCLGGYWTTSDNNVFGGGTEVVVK | A450 | 0.048 |
| rabbit monoclonal anti-human Id3, clone #BCH-4/#3-3 (antibody, V domains shown, Rabbit IgG from a rabbit hybridoma; also called h Id3 MoAb 3-3) VH: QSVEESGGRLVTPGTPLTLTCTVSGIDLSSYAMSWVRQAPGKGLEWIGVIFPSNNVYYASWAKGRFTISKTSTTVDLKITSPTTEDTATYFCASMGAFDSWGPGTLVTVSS VL: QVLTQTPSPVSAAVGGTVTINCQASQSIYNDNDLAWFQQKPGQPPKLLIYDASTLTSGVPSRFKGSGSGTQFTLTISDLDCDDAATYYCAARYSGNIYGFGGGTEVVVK | A450 | 0.049 |
| rabbit monoclonal anti-mouse/human Id3, clone #BCH-4/#16-1 (antibody, V domains shown, Rabbit IgG from a rabbit hybridoma; also called m/h Id3 MoAb 16-1) VH: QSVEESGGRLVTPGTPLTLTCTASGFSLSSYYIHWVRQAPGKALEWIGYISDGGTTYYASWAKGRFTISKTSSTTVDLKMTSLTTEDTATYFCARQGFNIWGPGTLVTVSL VL: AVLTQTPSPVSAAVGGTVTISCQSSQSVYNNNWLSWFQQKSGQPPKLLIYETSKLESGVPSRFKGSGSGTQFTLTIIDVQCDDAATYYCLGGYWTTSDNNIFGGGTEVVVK | A450 | 0.044 |
| rabbit monoclonal anti-mouse/human Id3, clone #BCH-4/#6-1 (antibody, V domains shown, Rabbit IgG from a rabbit hybridoma; also called m/h Id3 MoAb 6-1) VH: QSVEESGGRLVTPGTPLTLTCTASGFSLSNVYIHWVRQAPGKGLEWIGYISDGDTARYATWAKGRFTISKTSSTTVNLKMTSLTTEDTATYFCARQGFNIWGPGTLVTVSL VL: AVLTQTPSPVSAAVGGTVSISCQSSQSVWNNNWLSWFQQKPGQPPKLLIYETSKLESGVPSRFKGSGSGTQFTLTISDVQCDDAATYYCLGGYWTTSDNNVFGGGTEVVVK | A450 | 0.046 |
| rabbit monoclonal anti-mouse/human Id3, clone #BCH-4/#42-1 (antibody, V domains shown, Rabbit IgG from a rabbit hybridoma; also called m/h Id3 MoAb 42-1) VH: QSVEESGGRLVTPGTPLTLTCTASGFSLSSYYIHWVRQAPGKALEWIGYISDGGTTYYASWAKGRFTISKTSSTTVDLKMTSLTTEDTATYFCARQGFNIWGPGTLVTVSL VL: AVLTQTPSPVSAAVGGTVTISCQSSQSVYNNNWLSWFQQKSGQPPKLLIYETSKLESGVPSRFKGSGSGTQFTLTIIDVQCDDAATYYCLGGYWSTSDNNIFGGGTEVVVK | A450 | 0.05 |
